- System: non-small cell lung cancer (NCI-H226)
- runConditions: read-out: potency (at the LC50 level)
endpointLabel: CC50 (nM)
Output spec: scalar in nM, unitless text.

For record COc1cc2c(cc1OCCCC(=O)Nc1ccc3ccc4cccc5ccc1c3c45)N=C[C@@H]1CCCN1C2=O [Ve] the listed CC50 is 10

---

- Test system: prostate cancer (DU-145)
- runConditions: read-out: potency (at the LC50 level)
endpointLabel: CC50 (µM)
Output spec: scalar in µM, unitless text.

For record COc1cc2c(cc1OCCCC(=O)Nc1ccc3ccc4cccc5ccc1c3c45)N=C[C@@H]1CCCN1C2=O the listed CC50 is 10
